This document collects GI50 values reported for HCT-15.

CCOC(=O)c1csc(NC(=O)CN2CCCCC2)n1: > 100 µM

Could you tell me which GI50 is on file for `Nc1nc2c3nc(Nc4ccccc4)sc3nc(=O)n2c2sc(Nc3ccccc3)nc12` ?
> 100 µM

Cool, now N#CC1=C(N)N(/N=C/c2ccco2)C(c2ccco2)C1(C#N)C#N (stereo not given)
15.3 µM

Quick one: `COC(C)(C)[C@@H]1CCCN1C1=C(C)C(=O)OC1`
> 100 µM

Same for `N#Cc1cnn2cc[nH]c12`
> 100 µM

What about this compound? `O=C(N/N=C/C=C/c1ccc([N+](=O)[O-])o1)c1ccc(C(=O)N/N=C/C=C/c2ccc([N+](=O)[O-])o2)cc1`
37.4 µM

Now try CC(C)CCCC(C)[C@H]1CCC2[C@H]3C(CC[C@@]21C)[C@@]1(C)CCC=C[C@]12C[C@@H]2[C@@H]3O (stereo not given in full) .
> 100 µM

Can you handle `Cc1ccc(C(=O)Nc2ccc(CP(=O)(O)O)cc2CP(=O)(O)O)cc1NC(=O)Nc1cc(C(=O)Nc2ccc(CP(=O)(O)O)cc2CP(=O)(O)O)ccc1C` next?
> 100 µM

Subsequent entry: C=CC(O)C#Cc1cnc(OC)nc1OC (stereo not given)
> 100 µM

Also check NCC(O)CNC(=O)c1ccc(-c2ccc(-c3ccc(C(=O)NCC(O)CN)cc3)o2)cc1 (stereo not given)
57.8 µM

----------
- Tested on: HT-29
- Test description: NCI tumour cell line growth inhibition, 48 h
The source made the active and inactive calls. Rule as the data show it: active = GI50 up to about 1.1 µM and inactive = higher.
Response enum: active, inactive

Field: example entries. Status: answers known.
CCCn1c(SCC)c2ccccc2c1-c1nc(F)nc(F)n1: inactive
Nc1nc(O)c2nc(N)n(Cc3ccccc3)c2n1: inactive
CN(/N=C/c1ccc(Cl)cc1)C1=NCCCCN1: inactive
COc1ccc(NCc2cc(OC)cc(OC)c2)cc1: inactive
C/C(CC(=O)Nc1ccc(C)cc1)=N\NC(N)=S: inactive

What was the test verdict on `CC1(C)CC[C@]2(C)[C@@H](O)C[C@]3(C)C(=CC[C@@H]4[C@@]5(C)CC[C@H](O)C(C)(C)[C@@H]5CC[C@]43C)[C@@H]2C1` ?
inactive

Quick one: `CCOC(=O)c1cc(C(=O)O)c(=O)n2c1[nH]c1ccccc12`
inactive

What about `COc1c(Cl)ccc(Cl)c1-c1nnc(-c2c(Cl)c(Cl)c(Cl)c(Cl)c2-c2nc3cc(C(=O)c4ccccc4)ccc3[nH]2)o1` ?
inactive

Queued: COc1cccc2c1C(=O)c1c(O)c3c(c(O)c1C2=O)C[C@@](O)(C(=O)CO)C[C@@H]3OC1CC(N(C)C)C(O)C(C)O1 (some centres undefined)
active

Request: `CCOC(=O)c1csc(NC(=O)CN2CCCCC2)n1`
inactive

# repeat for `Cc1cccc2cc3cccc(C(=O)NCCN(C)C)c3nc12`
active

Param item: `CC(=O)N1CC(=O)N2C(=O)/C(=C/c3ccc(Cl)cc3)N=C12`
inactive

Do the same for `O=C(Nc1ccc(Cl)cc1Cl)C1C(=O)OC2(CCCCC2)OC1=O` please
inactive

Now this one: `Nc1[nH]c(=O)[nH]c(=O)c1Cc1cccc(Cl)c1`
inactive

Can you handle `CCCCOc1ccc2c(c1)CC[C@@H]1[C@@H]2CC[C@]2(C)C(=O)N(CCCC)C(=O)C[C@@H]12` next?
inactive

Now this one: `CCOC(=O)Cc1c(Cc2[nH]c(C(=O)OCc3ccccc3)c(CC(=O)OCC)c2CC(=O)OCC)[nH]c(C(=O)OCc2ccccc2)c1CC(=O)OCC`
inactive

Could you do the same for `O=C(/C=C/c1cccs1)c1ccccc1Cl` , please?
inactive

Also COC1C=CC(C(=O)[N+]2=Cc3[nH]c4ccccc4c3CC2)O1 (centres undefined) ?
inactive

Can you handle `Fc1cc(C2=Nn3c(COc4ccccc4Cl)nnc3S/C2=C\c2ccc(Cl)cc2)c(Cl)cc1Cl` next?
inactive

----------
- Test system: UO-31
- Test description: NCI tumour cell line growth inhibition, 48 h
Activity calls are given as the source filed them. Cut-off read from the data, not from the text of the source: active = GI50 up to about 1.1 µM and inactive = higher.
Known GI50 of a selection of molecules

Recorded GI50, per entry:
CCOC(=O)/C(C#N)=C(O)/C(=C/c1ccccc1Cl)NC(=O)c1ccccc1: > 100 µM (inactive)
COC(=O)C1=C(O)C(C(=O)OC)[C@@]2(O)[C@@H](C(=O)OC)[C@H](C)C[C@@H]1[C@@H]2C(=O)OC (stereo partly drawn): 21.5 µM (inactive)
C[C@H](CCC1=NCCN1)[C@H]1CC[C@H]2[C@@H]3CC[C@@H]4C[C@H](O)CC[C@]4(C)[C@H]3C[C@H](O)[C@]12C: 18.6 µM (inactive)
COc1ccc2cc(CNCCOCCOCCNCc3ccc4cc(OC)ccc4c3)ccc2c1: 1.32 µM (inactive)

# GI50 lookup, item CCOC(=O)C(=O)Nc1c(CC)cccc1C(C)CC (stereo not drawn)
> 100 µM (inactive)

Proceed to `NCc1ccccc1-c1c2nc(c(-c3ccccc3CN)c3ccc([nH]3)c(-c3ccccc3CN)c3nc(c(-c4ccccc4CN)c4ccc1[nH]4)C=C3)C=C2`
18.5 µM (inactive)

Now this one: `O=C(NCCO)Nc1c(C(F)(F)F)cc(-c2ccccc2)[nH]c1=O`
> 100 µM (inactive)

Next record, please: `C[N+](C)([O-])C12CC3CC(CC(C3)C1)C2`
13.9 µM (inactive)

----------
Overview of reported GI50 across a group of compounds:
- Test system: DU-145
- Test description: NCI tumour cell line growth inhibition, 48 h
The source made the active and inactive calls. Rule as the data show it: active = GI50 up to about 1.1 µM and inactive = higher.

Cc1c(-c2ccccn2)ccc2ccccc12: > 100 µM (inactive)

Query: GI50; subject: CC1=C2C(=O)OCC23C=COC3(C)O1 (configuration not stated)
39.4 µM (inactive)

Please give the result for `C[C@H](CCC1=NCCN1)[C@H]1CC[C@H]2[C@@H]3CC[C@@H]4C[C@H](O)CC[C@]4(C)[C@H]3C[C@H](O)[C@]12C` too.
15.6 µM (inactive)

What about this compound? `C#CCn1c(=O)c2ccccc2n(CC#C)c1=O`
> 10 µM (inactive)

----------
- System: SK-MEL-28
- Test description: NCI tumour cell line growth inhibition, 48 h
Activity calls are given as the source filed them. Cut-off read from the data, not from the text of the source: active = GI50 up to about 1.1 µM and inactive = higher.
# valid calls are active, inactive; nothing else

O=C1c2c(c3c4ccccc4n4c3c3c2c2ccccc2n3C/C=C\C4)C(=O)N1Cc1ccccc1: inactive
NCc1ccccc1-c1c2nc(c(-c3ccccc3CN)c3ccc([nH]3)c(-c3ccccc3CN)c3nc(c(-c4ccccc4CN)c4ccc1[nH]4)C=C3)C=C2: inactive
COc1c(OC)c(OC)c2c(=O)c(OC)c(-c3ccc4c(c3)OCO4)oc2c1OC: inactive

Moving on to another compound below.
For O=c1[nH]c(=O)n(C2CC(O)C(CO)O2)cc1/N=N/NCCc1ccccc1 (centres undefined) , what call appears in the results of this test?
inactive

----------
- System: DLD-1
- Test description: NCI tumour cell line growth inhibition, 48 h
Calls of active or inactive are those of the source. No stated cut-off is given here; in the data, active = GI50 up to about 1.1 µM and inactive = higher.
Endpoint: GI50

COC(=O)C1=C(C)N(NC(=O)c2ccccc2)C(C)(O)C12CCOC2=O (stereo not drawn): > 100 µM (inactive)
COc1ccc(S(=O)(=O)Nc2ccccc2C(=O)O)cc1: > 100 µM (inactive)

# input for lookup
I would be grateful if you could share the reported GI50 for `O=CC1=CCCN(CCc2c[nH]c3ccccc23)C1` .
53.5 µM (inactive)

----------
- System: RPMI-8226
- Test description: NCI tumour cell line growth inhibition, 48 h
Active and inactive are the calls of the source. No stated cut-off is given here; in the data, active = GI50 up to about 1.1 µM and inactive = higher.
Give your call using only these classes: active, inactive

Record excerpt, results attached:
O=C(O)CN1CCN2CCCCCN(CC1)CCN(CC(=O)O)CC2: inactive
O=C(O)C1OC1(c1cccc(Cl)c1)c1ccccc1Cl (centres undefined): inactive
CC(=O)OCC1OC(n2c3c(cc(C#N)c2=S)CCC3)C(OC(C)=O)C(OC(C)=O)C1OC(C)=O (centres undefined): inactive
Cc1ccc(C2SCC(=O)N2c2ccc(-n3c(-c4ccccc4)nc4ccccc4c3=O)cc2)cc1 (centres undefined): inactive
C/C(CC(=O)Nc1ccc(C)cc1)=N\NC(N)=S: inactive

Now take the following compound into account.
Kindly provide the recorded test outcome for the following compound: `Cn1c(=O)c(C(c2ccccc2)c2c(O)c3ccccc3n(C)c2=O)c(O)c2ccccc21`
inactive

----------
- System: HCT-15
# GI50 per entry

COc1ccc2c(c1OC)C(C=C(c1ccccc1)c1ccccc1)CN(C)C2 (stereo not drawn): 15 µM
CN(C)c1ccc(/C=C2\C[C@H]3[C@@H]4CC=C5C[C@@H](O)CC[C@]5(C)[C@H]4CC[C@]3(C)C2=O)cc1: 34.5 µM
CC(C)(C)c1ccc(-c2nnc(SCc3ccc(Cl)cc3)n2-c2cccc(C(F)(F)F)c2)cc1: 8.73 µM

Query GI50 on HCT-15 for Cc1ccc(S(=O)(=O)N/N=C2/CCC3(O)CC2(C)CCC2[C@H]3CC2(C)C)cc1 (stereo partly drawn)
27.1 µM

For `CCOC(=N)CC(=O)Nc1ccccc1` then?
32.8 µM

Please give the result for CC1(S)CC2C(CC1Sc1ccccc1)C2(C)C (stereo not drawn) too.
> 100 µM

Continue with `CCOC(=O)Nc1c(C#N)[n+]([O-])c2cc(Cl)c(Cl)cc2[n+]1[O-]`
5.13 µM

Also, `O=c1c2cc(-c3ccccc3)cnc2sn1-c1ccc(Br)cc1` please.
88.9 µM

Lookup `O=Cc1ccc(OC[C@H]2COC(=O)N2)cc1`
> 100 µM

# repeat for `Cc1sccc1C(=S)Nc1ccc(Cl)c(/C=N/OC(C)(C)C)c1`
15 µM

Same thing, different compound: CCCCCCCCCCCCCCCCCCN(C)CC(COP(=O)([O-])OCC[N+](C)(C)C)OC (stereo not drawn)
7.67 µM

Query `CNC1=Nc2ccccc2C(=S)N2CSC[C@@H]12` next
> 100 µM

COc1ccc(N[C@H](C[S+]([O-])c2ccc(C)cc2)C(F)(F)C(F)(F)F)cc1 (stereo partly drawn) ?
> 100 µM

Another compound to check: `CCOC(=O)c1cc2cc(CSc3ccccc3)ccc2oc1=O`
> 100 µM

O=C(O)C1=C(O)C(C(=O)O)C23CCCCCCCCCCC12C(C(=O)O)C(O)=C3C(=O)O (stereo not drawn) , same question.
> 100 µM
